- experimental target: HSV-polymerase (Human herpesvirus 1 (strain 17) (HHV-1) (Human herpes simplex virus 1))
- test name: biochemical
pIC50: −log10 of the molar value.
Rule: pIC50 under 7 gives No, otherwise Yes.

Solved entries:
| molecule | experimental target | category |
| --- | --- | --- |
| C[C@@H](NC(=O)c1nn(C)c2c1CCN(CC1(S(=O)(=O)C(C)(CO)CO)CC1)C2=O)c1ccc(Cl)cc1 [Example 178] | HSV-polymerase (Human herpesvirus 1 (strain 17) (HHV-1) (Human herpes simplex virus 1)) | No |
| Cn1nc(C(=O)NCc2ccc(C#N)cc2)c2c1C(=O)N(CC1(S(=O)(=O)C(C)(C)C(O)C(C)(C)N)CC1)CC2 (single isomer, unassigned) [Example 212] | HSV-polymerase (Human herpesvirus 1 (strain 17) (HHV-1) (Human herpes simplex virus 1)) | Yes |

In the following, a different molecule is considered.
# bool: pIC50 of Cn1nc(C(=O)NCc2ccc(C#N)cc2)c2c1C(=O)N(CC1(S(=O)(=O)C(C)(C)CCO)CC1)CC2 [Example 113] >= 7
Yes

====

- experimental target: CMV-polymerase (Human cytomegalovirus (strain AD169) (HHV-5) (Human herpesvirus 5))
- test name: biochemical
- conditions: read-out: CMV-polymerase Biochemical IC50
pIC50: −log10 of the molar value.
Rule: pIC50 under 8 gives False, otherwise True.

| compound | experimental target | category |
| --- | --- | --- |
| Cn1nc(C(=O)NCc2ccc(C#N)cc2)c2c1C(=O)N(CC1(S(=O)(=O)Nc3cc(C4CC4)on3)CC1)CC2 | CMV-polymerase (Human cytomegalovirus (strain AD169) (HHV-5) (Human herpesvirus 5)) | True |

# bool: pIC50 of CC1Cc2c(C(=O)NCc3ccc(C#N)cc3)nn(C)c2C(=O)N1CC1(S(C)(=O)=O)CC1 (single isomer, unassigned) >= 8
False

# bool: pIC50 of `Cn1nc(-c2nnn(Cc3ccc(C#N)cc3)n2)c2c1C(=O)N(CC1(S(=O)(=O)C3CC3)CC1)CC2` >= 8
True

# bool: pIC50 of Cn1nc(C(=O)NCc2ccc(C#N)cc2)c2c1C(=O)N(CC1(S(=O)(=O)C(C)(C)COC(F)CN)CC1)CC2 (single isomer, unassigned) [Example 83] >= 8
True

====

Give IC50 for every item shown.
- experimental target: CMV-polymerase (Human cytomegalovirus (strain AD169) (HHV-5) (Human herpesvirus 5), UniProt P08546)
- test name: biochemical
- conditions: read-out: CMV-polymerase Biochemical IC50
Reply with a number, then the unit it belongs to.

| test smiles | IC50 |
| --- | --- |
| Cn1nc(C(=O)NCc2ccc(C#N)cc2)c2c1C(=O)N(CC1(S(=O)(=O)NCCCN)CC1)CC2 | 31 nM |
| CO[C@@H]1CCN(CC(C)(C)S(=O)(=O)C2(CN3CCc4c(C(=O)NCc5ccc(C#N)cc5)nn(C)c4C3=O)CC2)C1 | 4 nM |
| Cn1nc(-c2nc(Cc3ccc(C#N)cc3)no2)c2c1C(=O)N(CC1(S(=O)(=O)C3CC3)CC1)CC2 | 7 nM |
| CC(C)(O)Cn1nc(C(=O)NCc2ccc(C#N)cc2)c2c1C(=O)N(CC1(S(=O)(=O)C(C)(C)CO)CC1)CC2 | 1 nM |

Each of the following entries comes with a recorded value; kindly state IC50 for each.
1. Cn1nc(C(=O)NCc2ccc(C#N)cc2)c2c1C(=O)N(CC1(S(=O)(=O)N3CCOCC3)CC1)CC2
2. Cn1nc(C(=O)NCc2ccc(C#N)c(F)c2)c2c1C(=O)N(CC1(S(C)(=O)=O)CC1)CC2
3. Cn1nc(C(=O)NCc2ccc(C#N)cc2)c2c1C(=O)N(CC1(S(=O)(=O)N3CC[C@H](O)C3)CC1)CC2

1. 6 nM
2. 7 nM
3. 4 nM
